- PROTOCOL DESCRIPTION: in vivo
- Design: species or system Crab-eating macaques (Macaca fascicularis)
- CONDITION: male, cynomolgus monkey, po, 30 mg/kg
MEASURED PARAMETER: Cmax
Please state the value followed by its unit.

Lab note: `C[C@H]1N2C(=O)c3c(O)c(=O)c(C(=O)NCc4ccc(F)cc4F)cn3C[C@@H]2OCC12CC2` gave Cmax of 1800 ng/mL

---

- PROTOCOL DESCRIPTION: in vivo
- Design: species or system Crab-eating macaques (Macaca fascicularis)
- CONDITION: male, cynomolgus monkey, po, 100 mg/kg
MEASURED PARAMETER: Tmax (h)
State just the number; it will be interpreted in h.

The compound `C[C@H]1N2C(=O)c3c(O)c(=O)c(C(=O)NCc4ccc(F)cc4F)cn3C[C@@H]2OCC12CC2` showed Tmax equal to 18.7

---

- PROTOCOL DESCRIPTION: PK test of compounds (mouse)
- Type: in vivo, ICR mice
- CONDITION: male, mouse, plasma; ICR mice, PO 10 mg/kg
Class true (1): half-life at least 100 min. Class false (0): half-life below 100 min.

The examples below pair each entry with its known result.
MOLECULE: C[C@@H]1CC2(CC2)O[C@H]2Cn3cc(C(=O)NCc4ccc(F)cc4F)c(=O)c(O)c3C(=O)N12 [Compound 6]
GROUP LABEL: true (1)
//
MOLECULE: C[C@H]1N2C(=O)c3c(O)c(=O)c(C(=O)NCc4ccc(F)cc4F)cn3C[C@@H]2OCC12CCC2 [Compound 2]
GROUP LABEL: true (1)

// query Confirm if half-life reported for the molecule C[C@@H]1CCO[C@H]2Cn3cc(C(=O)NCc4ccc(F)cc4F)c(=O)c(O)c3C(=O)N12 [DTG, Dolutegravir, reference compound] is 100 min or above.
// result true (1)

// query Hi, just wondering whether C[C@H]1N2C(=O)c3c(O)c(=O)c(C(=O)NCc4ccc(F)cc4F)cn3C[C@@H]2OCC12CC2 [Compound 1] shows half-life of 100 min or higher.
// result true (1)

// query Could you please find out whether C[C@H]1N2C(=O)c3c(O)c(=O)c(C(=O)NCc4ccc(F)cc4F)cn3C[C@@H]2OC12CC2 [Compound 10] has half-life that meets 100 min or exceeds it?
// result false (0)

---

- PROTOCOL DESCRIPTION: in vivo
- Design: species or system Crab-eating macaques (Macaca fascicularis)
- CONDITION: male, cynomolgus monkey, po, 100 mg/kg
MEASURED PARAMETER: AUC(0-inf)
Number plus unit, in that order.

Briefly, AUC(0-inf) measured for `C[C@H]1N2C(=O)c3c(O)c(=O)c(C(=O)NCc4ccc(F)cc4F)cn3C[C@@H]2OCC12CC2` : 164 µg·h/mL

---

- PROTOCOL DESCRIPTION: PK test of compounds (mouse)
- Format: in vivo, ICR mice
- CONDITION: male, mouse, plasma; ICR mice, PO 10 mg/kg (IV 2 mg/kg)
MEASURED PARAMETER: bioavailability

# compound C[C@@H]1CC2(CC2)O[C@H]2Cn3cc(C(=O)NCc4ccc(F)cc4F)c(=O)c(O)c3C(=O)N12 [Compound 6] ; its bioavailability = 42.5%

Measured bioavailability, C[C@@H]1CCO[C@H]2Cn3cc(C(=O)NCc4ccc(F)cc4F)c(=O)c(O)c3C(=O)N12 [DTG, Dolutegravir, reference compound] : 46%

bioavailability reported for this compound C[C@H]1N2C(=O)c3c(O)c(=O)c(C(=O)NCc4ccc(F)cc4F)cn3C[C@@H]2OC12CC2 [Compound 10] : 32.9%

C[C@H]1N2C(=O)c3c(O)c(=O)c(C(=O)NCc4ccc(F)cc4F)cn3C[C@@H]2OCC12CC2 [Compound 1] has a reported bioavailability of 57%

Sure, the documented bioavailability for C[C@H]1N2C(=O)c3c(O)c(=O)c(C(=O)NCc4ccc(F)cc4F)cn3C[C@@H]2OCC12CCC2 [Compound 2] is 50.8%
